Taken from patent US20100016343A1.

Biological target: CYP3A4 (Homo sapiens, UniProt P08684)
Sequence (P08684 whole entry, species assumed): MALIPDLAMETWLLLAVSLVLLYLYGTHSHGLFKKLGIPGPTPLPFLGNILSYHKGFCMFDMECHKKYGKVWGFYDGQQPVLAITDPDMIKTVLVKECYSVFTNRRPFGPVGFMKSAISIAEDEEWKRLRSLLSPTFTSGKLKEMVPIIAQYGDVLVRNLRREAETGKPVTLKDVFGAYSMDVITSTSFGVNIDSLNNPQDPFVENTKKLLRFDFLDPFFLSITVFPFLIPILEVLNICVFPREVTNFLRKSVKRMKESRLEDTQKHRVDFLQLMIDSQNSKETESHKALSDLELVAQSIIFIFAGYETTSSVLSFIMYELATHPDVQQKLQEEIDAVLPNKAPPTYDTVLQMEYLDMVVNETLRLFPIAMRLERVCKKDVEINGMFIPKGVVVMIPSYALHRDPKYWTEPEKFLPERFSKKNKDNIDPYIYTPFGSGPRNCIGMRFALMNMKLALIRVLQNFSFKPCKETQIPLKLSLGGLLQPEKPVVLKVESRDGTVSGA
Assay: CYP3A4 % inhibition
Format: in vitro ADME
Rule: CYP3A4 % inhibition under -20% gives no, otherwise yes.

> print(dat)
                                   compound  group
1  O=C(NCCCCN1CCCCC1)Nc1ccc(-c2cccc(F)c2)cc1     no
2  COc1ccccc1-c1ccc(NC(=O)NCCCCN2CCCCC2)cn1    yes
3  COc1ncccc1-c1ccc(NC(=O)NCCCCN2CCCCC2)cn1 [drawing 63]     no
4    O=C(NCCCCN1CCCCC1)Nc1ccc(-c2ccncc2)cc1    yes
5   O=C(NCCCCN1CCCCC1)Nc1ccc(-c2ccccc2F)cc1    yes
6  COc1ccccc1-c1ccc(NC(=O)NCCCCN2CCCCC2)cc1    yes
7  COc1ccc(-c2ccc(NC(=O)NCCCCN3CCCCC3)cn2)cc1    yes
8    O=C(NCCCCN1CCCCC1)Nc1ccc(-c2cccnc2)nc1    yes
9    O=C(NCCCCN1CCCCC1)Nc1ccc(-c2ccccc2)nc1     no
